Values were extracted from PubChem BioAssay AID1159580.

Below: a set of entries, each annotated with reported normalized growth.
# EXPERIMENTAL DETAILS: chemical genetic growth profiling, strain panel (AID 1159580);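 note: tested at 20 µM; growth read once vehicle control cultures reached saturation at 30 °C; 1 = growth at the plate median or of vehicle wells; lower values mean less growth of the strain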
# RUN CONDITIONS: S. cerevisiae deletion strains, growth OD, locus YNL071W, strain lat1, active compounds read low
The campaign covered roughly 5,500 compounds. About 2,000 (36%) were called active. About 18% were inconclusive and are not listed. This is one part of the list.
Lab note: write the figure by itself, no unit.

Some solved entries appear below for comparison.
MOLECULE: O=C(O)c1cccc(O)c1O
normalized growth: 1.01
//
MOLECULE: CCC(=O)O[C@H]1CCC2C3CCc4cc(O)ccc4C3CC[C@@]21C (some centres undefined)
normalized growth: 0.969
//
MOLECULE: Cc1cccc(N(C)C(=S)Oc2ccc3ccccc3c2)c1
normalized growth: 1.01
//
MOLECULE: CC(=O)Oc1ccc2c(c1)CCC1C2CC[C@@]2(C)C1CC[C@@H]2OC(C)=O (some centres undefined)
normalized growth: 0.97
//
MOLECULE: CC1=C2CCC3C(CC[C@]4(C)C(=O)CCC34)[C@@]2(C)CCC1=O (some centres undefined)
normalized growth: 0.863
//
MOLECULE: CCOc1ccc(Cc2nccc3cc(OCC)c(OCC)cc23)cc1OCC
normalized growth: 0.985
//
MOLECULE: Cn1cnc([N+](=O)[O-])c1Sc1ncnc2nc[nH]c12
normalized growth: 1.03
//
MOLECULE: C[C@H]1C(=O)O[C@@H]2CCN3CC=C(COC(=O)[C@](C)(O)[C@]1(C)O)[C@H]23
normalized growth: 0.991

Q: I'd like to know its normalized growth. The molecule in question is CC(=O)O[C@H]1CC2CCC3C(CC[C@@]4(C)C3C[C@H]([N+]3(C)CCCCC3)[C@@H]4OC(C)=O)[C@@]2(C)C[C@@H]1[N+]1(C)CCCCC1 (some centres undefined)
A: 1.01

----------
The entries below are paired with their reported normalized growth.
# EXPERIMENTAL DETAILS: chemical genetic growth profiling, strain panel (AID 1159580)
# RUN CONDITIONS: S. cerevisiae deletion strains, growth OD, locus YNL153C, strain GIM3, active compounds read low
About 2,000 (36%) of roughly 5,500 compounds were called active. Roughly 18% stayed inconclusive and do not appear here. This is one part of the list.

Before answering, review these 3 worked examples.
COMPOUND: COc1ccccc1N=C1SCC(=O)N1Cc1ccco1
normalized growth: 0.987 (inactive)
--
COMPOUND: O=C1OC(=O)C2C3CCC(O3)C12 (configuration not stated)
normalized growth: 1.01 (inactive)
--
COMPOUND: O=S(=O)(O)c1cccc2cccc(Cl)c12
normalized growth: 0.999 (inactive)

Q: Please report the recorded normalized growth for Cn1c(=O)[nH]c(=O)c2[nH]cnc21 .
A: 0.993 (inactive)

Q: Which normalized growth is listed for C(=C\c1ccccc1)/CN1CCN(C(c2ccccc2)c2ccccc2)CC1 ?
A: 0.851 (inactive)

Q: So what's the measured normalized growth for this one? C[N+](C)(C)CC#CCN1CCCC1=O
A: 0.994 (inactive)

Q: What normalized growth value was documented for this compound, O=C(NC(=S)Nc1ccc(Cl)cc1)c1ccc([N+](=O)[O-])o1 ?
A: 0.999 (inactive)

----------
Quick list: normalized growth per entry.
# EXPERIMENTAL DETAILS: chemical genetic growth profiling, strain panel (AID 1159580)
# RUN CONDITIONS: S. cerevisiae deletion strains, growth OD, locus YLR262C, strain YPT6 (second series), active compounds read low
The whole screen tested about 5,500 compounds, of which about 2,000 (36%) were called active. About 18% were inconclusive and are not listed. The list shows a part of the results.
Reply with just the number.

COMPOUND: C=C1CC2C(CCC3(C)C(=O)CCC23)C2(C)C=CC(=O)C=C12 (stereo unspecified)
normalized growth: 0.925
//
COMPOUND: CC1(C)C[C@@H]2C(=O)CC[C@H]3O[C@]3(C)CC[C@H]21
normalized growth: 1.05
//
COMPOUND: O=c1ccc2ccc(O)c(O)c2o1
normalized growth: 1.02

Q: Could you tell me which normalized growth is on file for O=c1[nH]cnc2nc[nH]c12 ?
A: 1.02

Q: Field request: normalized growth | item: O=C1c2ccc(O)c(O)c2C(=O)c2c(O)ccc(O)c21
A: 0.185

Q: State the recorded normalized growth for this entry: Cc1ncc([N+](=O)[O-])n1CCO
A: 0.964

----------
# EXPERIMENTAL DETAILS: chemical genetic growth profiling, strain panel (AID 1159580);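 note: tested at 20 µM; growth read once vehicle control cultures reached saturation at 30 °C; 1 = growth at the plate median or of vehicle wells; lower values mean less growth of the strain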
# RUN CONDITIONS: S. cerevisiae deletion strains, growth OD, locus YNL250W, strain rad50, active compounds read low
Among all 5,500 compounds or so, about 2,000 (36%) were called active. Inconclusive results (about 18%) are left out. This is one part of the list.
Threshold 1: normalized growth strictly smaller gives 1, otherwise -1.

Examples with answers:
COMPOUND: COC(=O)C1=CO[C@@H](O[C@@H]2O[C@H](CO)[C@@H](O)[C@H](O)[C@H]2O)[C@@H]2[C@@H](C)[C@@H](O)C[C@H]12
CATEGORY: 1
--
COMPOUND: COc1cc(OC)c(-c2c(OC)cc(OC)cc2OC)c(OC)c1
CATEGORY: -1
--
COMPOUND: CC(C)=CCC1=C(O)c2ccccc2C(=O)C1=O
CATEGORY: 1
--
COMPOUND: CC1=C2CCC3C(CC[C@]4(C)C(=O)CCC34)[C@@]2(C)CCC1=O (some centres undefined)
CATEGORY: 1
--
COMPOUND: N#C/C(=C\c1ccc(O)cc1)C(=O)O
CATEGORY: 1

Q: Hi there! Is normalized growth for N#Cc1ccc2c(c1)N(CCCN1CCC(O)CC1)c1ccccc1S2 below 1, do you know?
A: -1

Q: Criterion: normalized growth strictly below 1. Is it met by COc1cc(O)c(C(=O)O)c(O)c1 ?
A: 1

----------
# EXPERIMENTAL DETAILS: chemical genetic growth profiling, strain panel (AID 1159580);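 note: tested at 20 µM; growth read once vehicle control cultures reached saturation at 30 °C; 1 = growth at the plate median or of vehicle wells; lower values mean less growth of the strain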
# RUN CONDITIONS: S. cerevisiae deletion strains, growth OD, locus YKL193C, strain SDS22, active compounds read low
The whole screen tested about 5,500 compounds, of which about 2,000 (36%) were called active. Roughly 18% stayed inconclusive and do not appear here. Some of the results follow.
Parameter normalized growth: see the listing below.
Give the figure only, with no unit attached.

COMPOUND: FC(F)(F)c1ccc(C2Sc3ccccc3N=C3c4ccccc4CC32)cc1 (stereo not given)
VALUE OBSERVED: 1.01
//
COMPOUND: NNC(=O)COc1ccc(C2SCCS2)cc1
VALUE OBSERVED: 0.927
//
COMPOUND: Cc1oc(-c2ccc(Cl)cc2)cc1C(=O)N1CCN(c2ccc(C(F)(F)F)cn2)CC1
VALUE OBSERVED: 0.97
//
COMPOUND: N/C(=N/OC(=O)c1ccccc1Cl)c1cccc(CS(=O)(=O)c2ccc(Cl)cc2)c1
VALUE OBSERVED: 0.983
//
COMPOUND: N/C(=N/OC(=O)c1ccccc1Cl)c1ccc2nonc2c1
VALUE OBSERVED: 0.965
//
COMPOUND: CCCCCc1ccc(-c2nc(SCC(C)=O)n[nH]2)cc1
VALUE OBSERVED: 0.95
//
COMPOUND: CC(C)(C)c1cc(C(=O)/C(C#N)=N\Nc2ccc(Cl)cc2)no1
VALUE OBSERVED: 0.959
//
COMPOUND: CCOC(=O)C1C(c2ccc(Br)cc2)C(C(=O)OCC)C(O)(C(F)(F)F)NC1(O)C(F)(F)F (stereo not given)
VALUE OBSERVED: 0.998

Q: What does the data say about its normalized growth? Entry: Cc1c(NCN2C(=O)CCC2=O)cc2c(c1[N+](=O)[O-])C(C)(C)CC2(C)C
A: 0.95

Q: Which normalized growth value belongs to CCCCc1ccc(N=CNO)c(C)c1 ?
A: 0.978

Q: Requested field: normalized growth. Item: Nc1ccc(N2CCN(c3ccc(C(F)(F)F)cn3)CC2)nc1
A: 0.983

----------
# EXPERIMENTAL DETAILS: chemical genetic growth profiling, strain panel (AID 1159580);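 note: tested at 20 µM; growth read once vehicle control cultures reached saturation at 30 °C; 1 = growth at the plate median or of vehicle wells; lower values mean less growth of the strain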
# RUN CONDITIONS: S. cerevisiae deletion strains, growth OD, locus YDL040C, strain nat1
In all, about 5,500 compounds went through this assay and about 2,000 (36%) were called active. Inconclusive results (about 18%) are left out. No stated cut-off is given here; in the data, active means normalized growth mostly below about 0.91 (no sharp cut-off); inconclusive means no clear call, values can overlap the other calls; inactive means mostly above about 0.92. The list shows a part of the results.
Answer with one of the outcomes 1 = active, -1 = inactive

The following compounds have reported results that may help.
COMPOUND: COc1c(O)cc(O)cc1O
CATEGORY: -1
//
COMPOUND: COc1c2c(cc3occ(-c4ccc5c(c4)OCO5)c(=O)c13)OC(C)(C)C=C2
CATEGORY: -1

Q: // param item: COc1cc(OC)c(C(C)=O)c(O)c1C ; yields the recorded call
A: -1

Q: Per the assay record, what outcome was assigned to COc1c2occc2cc2ccc(=O)oc12 ?
A: -1

Q: Outcome? CC(C)=CCOc1c2occc2cc2ccc(=O)oc12
A: -1

Q: GET /call?item= O=C1OC(=O)C2C3CCC(O3)C12 (configuration not stated) returns the recorded outcome of this test.
A: -1

Q: Record request — test call for CCCCC(=O)O[C@H]1CCC2C3CCc4cc(O)ccc4C3CC[C@@]21C (some centres not stated)
A: -1

Q: What is the recorded call for this compound in the test? COc1ccc2c(=O)c(CC(=O)O)coc2c1
A: -1

Q: Hi, do you know how O=C1c2ccccc2C(=O)c2c1ccc(O)c2O came out in this test?
A: 1

Q: Check the results log: what was the call for CC(C(=O)O)c1ccc(N2Cc3ccccc3C2=O)cc1 (configuration not stated) ?
A: -1

Q: Please state the recorded outcome for this compound: Cc1nccc2c1[nH]c1ccccc12
A: -1

Q: Recorded test outcome, item NCCS
A: -1

Q: Assay result, entry O=C(O)c1cc2cc(Cl)ccc2[nH]1 — outcome?
A: -1

Q: # fetch the recorded call for CC1(C)S[C@@H]2[C@H](NC(=O)COc3ccccc3)C(=O)N2[C@H]1C(=O)O here
A: -1

Q: What outcome does the record of this test show for C[C@]12CCC3c4ccc(O)cc4CCC3C1CC[C@@H]2OC(=O)CCC1CCCC1 (some centres not stated) ?
A: -1

Q: // return assay outcome for Fc1ccc(C(c2ccc(F)cc2)N2CCN(C/C=C/c3ccccc3)CC2)cc1
A: 1

Q: Entry Cc1cc(O)c2c(c1O)C(=O)c1c(O)cc(C)c(O)c1C2=O : call = ?
A: -1

Q: Please let me know the test result on file for CC(=O)O[C@H]1CC2CCC3C(CC[C@@]4(C)C3C[C@H]([N+]3(C)CCCCC3)[C@@H]4OC(C)=O)[C@@]2(C)C[C@@H]1[N+]1(C)CCCCC1 (some centres not stated) .
A: -1
